Tested on: RAW macrophages
Experiment: Cell viability (CellTiter-Glo), RAW macrophages
Format: cell-based, mouse
Conditions: CellTiter-Glo
For each of the molecules below, state its Cell viability (%) RAW macrophages 50 μM.
Unit % implied. Number only.

## Input Form: Entry = CC1N=C(c2ccccc2F)c2cc(Br)ccc2-n2cnc(C=O)c21 (stereo not shown) [GL-III-35] | System = RAW macrophages | Cell viability (%) RAW macrophages 50 μM = ____
## Output 100

## Input Form: Entry = `C#Cc1ccc2c(c1)C(c1ccccc1F)=NCc1c(C(=O)OCCCO)ncn1-2` | System = RAW macrophages | Cell viability (%) RAW macrophages 50 μM = ____
## Output 100

## Input Form: Entry = C#Cc1ccc2c(c1)C(c1ccccc1F)=NC(C)c1c(C(=S)NC)ncn1-2 (stereo not shown) | System = RAW macrophages | Cell viability (%) RAW macrophages 50 μM = ____
## Output 100

## Input Form: Entry = `C#Cc1ccc2c(c1)C(c1ccccn1)=NCC(=O)N2` | System = RAW macrophages | Cell viability (%) RAW macrophages 50 μM = ____
## Output 100

## Input Form: Entry = `C#Cc1ccc2c(c1)C(c1ccccc1F)=NCc1c(C(=O)O)ncn1-2` | System = RAW macrophages | Cell viability (%) RAW macrophages 50 μM = ____
## Output 100

## Input Form: Entry = CC1N=C(c2ccccc2F)c2cc(Br)ccc2-n2cnc(C=O)c21 (stereo not shown) [GL-III-75] | System = RAW macrophages | Cell viability (%) RAW macrophages 50 μM = ____
## Output 100

## Input Form: Entry = CC1N=C(c2ccccc2F)c2cc(Br)ccc2-n2cnc(-c3cnco3)c21 (racemic) [GL-III-76A] | System = RAW macrophages | Cell viability (%) RAW macrophages 50 μM = ____
## Output 97

## Input Form: Entry = `Cc1noc(-c2ncn3c2[C@@H](C)N=C(c2ccccc2F)c2cc(Br)ccc2-3)n1` | System = RAW macrophages | Cell viability (%) RAW macrophages 50 μM = ____
## Output 86

## Input Form: Entry = `C[C@H]1N=C(c2ccccc2F)c2cc(Cl)ccc2-n2cnc(C(=O)O)c21` | System = RAW macrophages | Cell viability (%) RAW macrophages 50 μM = ____
## Output 99

## Input Form: Entry = C#Cc1ccc2c(c1)C(c1ccccc1F)=NC(C)C(=O)N2C (stereo not shown) [GL-III-25] | System = RAW macrophages | Cell viability (%) RAW macrophages 50 μM = ____
## Output 100

## Input Form: Entry = `C#Cc1ccc2c(c1)C(c1ccccc1F)=N[C@@H](C)C(=O)N2` | System = RAW macrophages | Cell viability (%) RAW macrophages 50 μM = ____
## Output 100

## Input Form: Entry = C#Cc1ccc2c(c1)C(c1ccccc1F)=NC(C)c1c(C(=S)NC3CC3)ncn1-2 (stereo not shown) | System = RAW macrophages | Cell viability (%) RAW macrophages 50 μM = ____
## Output 100

## Input Form: Entry = CC1N=C(c2ccccn2)c2cc(Br)ccc2NC1=O (stereo not shown) | System = RAW macrophages | Cell viability (%) RAW macrophages 50 μM = ____
## Output 100

## Input Form: Entry = `CCOC(=O)c1ncn2c1[C@@H](C)N=C(c1ccccc1F)c1cc(C3CC3)ccc1-2` | System = RAW macrophages | Cell viability (%) RAW macrophages 50 μM = ____
## Output 100

## Input Form: Entry = `CCc1noc(-c2ncn3c2[C@@H](C)N=C(c2ccccc2F)c2cc(C4CC4)ccc2-3)n1` | System = RAW macrophages | Cell viability (%) RAW macrophages 50 μM = ____
## Output 97

## Input Form: Entry = C#Cc1ccc2c(c1)C(c1ccccn1)=N[C@H](C)c1c(-c3nc(CC)no3)ncn1-2 [GL-II-54] | System = RAW macrophages | Cell viability (%) RAW macrophages 50 μM = ____
## Output 100

## Input Form: Entry = `C#Cc1ccc2c(c1)C(c1ccccc1F)=N[C@H](C)c1c(-c3nc(CC)no3)ncn1-2` | System = RAW macrophages | Cell viability (%) RAW macrophages 50 μM = ____
## Output 86

## Input Form: Entry = `C#Cc1ccc2c(c1)C(c1ccccc1F)=N[C@H](C)c1c(C(=O)NC(C)C)ncn1-2` | System = RAW macrophages | Cell viability (%) RAW macrophages 50 μM = ____
## Output 100

## Input Form: Entry = `C[C@H]1N=C(c2ccccc2F)c2cc(Br)ccc2-n2cnc(-c3cnco3)c21` | System = RAW macrophages | Cell viability (%) RAW macrophages 50 μM = ____
## Output 81

## Input Form: Entry = `C#Cc1ccc2c(c1)C(c1ccccc1F)=N[C@@H](C)c1c(-c3nc(C(C)C)no3)ncn1-2` | System = RAW macrophages | Cell viability (%) RAW macrophages 50 μM = ____
## Output 91

## Input Form: Entry = `C#Cc1ccc2c(c1)C(c1ccccn1)=N[C@H](C)C(=O)N2` | System = RAW macrophages | Cell viability (%) RAW macrophages 50 μM = ____
## Output 100

## Input Form: Entry = C#Cc1ccc2c(c1)C(c1ccccn1)=NC(C)c1c(-c3nc(C)no3)ncn1-2 (stereo not shown) | System = RAW macrophages | Cell viability (%) RAW macrophages 50 μM = ____
## Output 100

## Input Form: Entry = `C#Cc1ccc2c(c1)C(c1ccccc1F)=N[C@H](C)c1c(C(=O)NC)ncn1-2` | System = RAW macrophages | Cell viability (%) RAW macrophages 50 μM = ____
## Output 100

## Input Form: Entry = `CCOC(=O)c1ncn2c1[C@@H](C)N=C(c1ccccc1F)c1cc(Cl)ccc1-2` | System = RAW macrophages | Cell viability (%) RAW macrophages 50 μM = ____
## Output 97

## Input Form: Entry = CC1N=C(c2ccccc2F)c2cc(C#C[Si](C)(C)C)ccc2-n2cnc(-c3cnco3)c21 (stereo not shown) [GL-III-77] | System = RAW macrophages | Cell viability (%) RAW macrophages 50 μM = ____
## Output 85

## Input Form: Entry = `CCNC(=O)c1ncn2c1[C@@H](C)N=C(c1ccccc1F)c1cc(C3CC3)ccc1-2` | System = RAW macrophages | Cell viability (%) RAW macrophages 50 μM = ____
## Output 100

## Input Form: Entry = `C#Cc1ccc2c(c1)C(c1ccccc1F)=N[C@H](C)c1c(-c3nc(C(C)C)no3)ncn1-2` | System = RAW macrophages | Cell viability (%) RAW macrophages 50 μM = ____
## Output 81

## Input Form: Entry = `CCOC(=O)c1ncn2c1[C@@H](C)N=C(c1ccccn1)c1cc(C#C[Si](C)(C)C)ccc1-2` | System = RAW macrophages | Cell viability (%) RAW macrophages 50 μM = ____
## Output 99

## Input Form: Entry = `C[C@@H]1N=C(c2ccccc2F)c2cc(Br)ccc2-n2cnc(-c3cnco3)c21` | System = RAW macrophages | Cell viability (%) RAW macrophages 50 μM = ____
## Output 100

## Input Form: Entry = C#Cc1ccc2c(c1)C(c1ccccc1F)=NC(C)C(=O)N2C (stereo not shown) [GL-III-24] | System = RAW macrophages | Cell viability (%) RAW macrophages 50 μM = ____
## Output 100

## Input Form: Entry = `C[C@H]1N=C(c2ccccc2F)c2cc(Br)ccc2-n2cnc(C(=O)N(C)C)c21` | System = RAW macrophages | Cell viability (%) RAW macrophages 50 μM = ____
## Output 98

## Input Form: Entry = `C#Cc1ccc2c(c1)C(c1ccccc1F)=N[C@H](C)c1c(-c3cnco3)ncn1-2` | System = RAW macrophages | Cell viability (%) RAW macrophages 50 μM = ____
## Output 100

## Input Form: Entry = `C[C@H]1N=C(c2ccccn2)c2cc(Br)ccc2-n2cnc(C(=O)O)c21` | System = RAW macrophages | Cell viability (%) RAW macrophages 50 μM = ____
## Output 100

## Input Form: Entry = `CC(C)c1noc(-c2ncn3c2[C@@H](C)N=C(c2ccccc2F)c2cc(C4CC4)ccc2-3)n1` | System = RAW macrophages | Cell viability (%) RAW macrophages 50 μM = ____
## Output 100
